# PROCEDURE TEXT: inhibitors of TNFa-induced NFkB p65 translocation, primary screen, imaging, HUVEC, MLSMR starter and 10KST1 sets (AID 438);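 further: compound added about 3h40 before a 20 min TNFalpha stimulation; signal is the nuclear over cytoplasmic p65 intensity ratio per well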
# EXPERIMENTAL PARAMETERS: HUVEC TNFa-induced p65 nuclear translocation; at 2 µM, 0% TNFa-plus-vehicle, 100% no-TNFa wells
Activity calls are given as the source filed them.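 How the source made its calls: active means inhibition above 20% together with a positive visual image hit; inconclusive means visual image hit but inhibition not above 20%; inactive means no visual image hit.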
Form entry, call: pick from TRUE for active, FALSE for inactive

Worked examples, 6 compounds total:
1. O=C(Nc1cccnc1)c1cc2c(ccc3ccccc32)o1 : FALSE
2. CCOC(=O)c1cc2c(=O)n3ccccc3nc2n(CCCOC)c1=NC(=O)C(C)(C)C : FALSE
3. C[C@H](NC(=O)OC(C)(C)C)C(=O)NCC1CCC(C(=O)O)CC1 (stereo partly specified) : FALSE
4. c1ccc(-n2nnnc2OCCOc2nnnn2-c2ccccc2)cc1 : FALSE
5. O=C1CCCCCC1C1(O)C(=O)Nc2ccccc21 (stereo unspecified) : FALSE
6. CN(C)c1nc(Nc2ccc(Cl)cc2)nc(OCC#N)n1 : FALSE

### Prompt Check the results log: what was the call for CC(=O)NCc1ccc(C(=O)CSc2nnc(-c3ccncc3)n2Cc2ccccc2)o1 ?
### Response FALSE

### Prompt Now this one: c1ccc(-c2nnc(CN3CCC4(CC3)OCCO4)o2)cc1
### Response FALSE

### Prompt Now this one: COc1cc(C)nc(OCCNC(=O)COc2ccc(Cl)cc2C)n1
### Response TRUE

### Prompt Now this one: COc1cc(C2c3c(n[nH]c3C)C(=O)N2c2ccc(C)cc2)ccc1O (stereo unspecified)
### Response FALSE

### Prompt Now this one: CC1=C(C(=O)NCc2ccccn2)C2(CCC(C)CC2)OC1=O (stereo unspecified)
### Response FALSE

----------
# PROCEDURE TEXT: reduction of polyQ htt aggregates in cells – imaging, exon1htt(103Q)mCFP cells, high-content imaging, primary screen (AID 483);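 further: compound exposure lasted 3 days before fixation; percent of the per-plate median nuclei count of sample wells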
# EXPERIMENTAL PARAMETERS: exon1htt(103Q)mCFP cell line, aggregate imaging, at 2 µM; measured here: cell count, toxicity
MEASURED PROPERTY: nuclei count (%)
Note: unit % is implicit; provide only the numeric part.

Here's what some known entries look like.
1) O=C(Cc1c(F)cccc1Cl)Nc1ccncc1 : 104
2) CCOC(=O)N1CCN(Cc2cc(=O)oc3ccc4ccccc4c23)CC1 : 93.3
3) O=C1C2C3C=CC(C3=C3CCCCC3)C2C(=O)N1c1ccccc1 (stereo unspecified) : 104

### Prompt Fill in: nuclei count of CCn1c(=N)n(CC(=O)c2ccco2)c2ccccc21 is ___
### Response 68

### Prompt Now this one: COc1ccc(CCNc2oc(Cc3cccc4ccccc34)nc2C#N)cc1OC
### Response 81.2

### Prompt Now this one: COc1ccc(C)cc1S(=O)(=O)N(C)CC(=O)Nc1ccc2c(c1)OCO2
### Response 94.7

### Prompt Now this one: CCn1nnc(NC(=O)c2cc3ccccc3o2)n1
### Response 87.2

### Prompt Now this one: Cc1c(C(=O)NCc2ccccn2)oc2ccccc12
### Response 86

### Prompt Now this one: Cc1cc2ncn(S(=O)(=O)c3ccc(S(=O)(=O)N4CCOCC4)cc3)c2cc1C
### Response 93.4

### Prompt Now this one: O=c1c2[nH]c3ccc(Cl)cc3c2ncn1Cc1ccccn1
### Response 83.4

### Prompt Now this one: Cc1ccc(-n2c3c(cc(C(=O)O)c2=O)C(=O)CC(C)(C)C3)cc1
### Response 109
